- Test system: Her2-positive human BT474 breast tumor cells
- PROTOCOL_SUMMARY: Cytotoxicity assay (growth inhibition, CellTiter-Glo) on BT474
- EXPERIMENTAL_SETUP: Homo sapiens, BT-474, 120 h, read-out: Cytotoxicity assay IC50 BT474, BT474 cells, 120 hours, CellTiter-Glo
METRIC: pIC50
One number for each entry, as −log10 of the molar value.

Guide cases for pIC50, answers given:
{"COMPOUND": "COc1cc2cc(c1Cl)N(C)C(=O)C[C@H](OC(=O)[C@H](C)OCCSC1CC(=O)N(C[C@H]3CC[C@H](C(=O)ON4C(=O)CCC4=O)CC3)C1=O)[C@]1(C)O[C@H]1[C@H](C)C1C[C@@](O)(NC(=O)O1)[C@H](OC)/C=C/C=C(\\C)C2 (stereo partly shown)", "pIC50": 7.31}
{"COMPOUND": "COc1cc2cc(c1Cl)N(C)C(=O)CC(OC(=O)[C@H](C)N(C)C(CCSSCCCC(=O)ON1C(=O)CCC1=O)C(F)(F)F)[C@]1(C)O[C@H]1[C@H](C)[C@@H]1C[C@@](O)(NC(=O)O1)[C@H](OC)/C=C/C=C(\\C)C2 (stereo partly shown)", "pIC50": 7.17}
{"COMPOUND": "COc1cc2cc(c1Cl)N(C)C(=O)C[C@H](OC(=O)C(C)(C)OCCCSC1CC(=O)N(C[C@H]3CC[C@H](C(=O)ON4C(=O)CCC4=O)CC3)C1=O)[C@]1(C)O[C@H]1[C@H](C)C1C[C@@](O)(NC(=O)O1)[C@H](OC)/C=C/C=C(\\C)C2 (stereo partly shown)", "pIC50": 6.86}

Let us move to another entry and its pIC50.
Query: Form entry - test system: Her2-positive human BT474 breast tumor cells; read-out: pIC50; compound: COc1cc2cc(c1Cl)N(C)C(=O)C[C@H](OC(=O)[C@H](C)OCCOCCOCCNC(=O)CBr)[C@]1(C)O[C@H]1[C@H](C)C1C[C@@](O)(NC(=O)O1)[C@H](OC)/C=C/C=C(\C)C2
Response: 7.58

----------
Can you tell me pIC50 for the items I'm about to list?
- System: Her2 low expression human MCF-7 breast tumor cells
- PROTOCOL_SUMMARY: Cytotoxicity assay (growth inhibition, CellTiter-Glo) on MCF-7
- EXPERIMENTAL_SETUP: read-out: Cytotoxicity assay IC50 MCF7; MCF-7 cells, 120 hours, CellTiter-Glo
One number for each entry, as −log10 of the molar value.

{"COMPOUND": "COc1cc2cc(c1Cl)N(C)C(=O)C[C@H](OC(=O)[C@H](C)OCCCSC1CC(=O)N(C[C@H]3CC[C@H](C(=O)ON4C(=O)CCC4=O)CC3)C1=O)[C@]1(C)O[C@H]1[C@H](C)C1C[C@@](O)(NC(=O)O1)[C@H](OC)/C=C/C=C(\\C)C2 (stereo partly shown) [CE-035]", "OBS_VALUE": 7.59}

State recorded pIC50 for all listed compounds.
1. COc1cc2cc(c1Cl)N(C)C(=O)C[C@H](OC(=O)C(COCCCSSC)OC)[C@]1(C)O[C@H]1[C@H](C)C1C[C@@](O)(NC(=O)O1)[C@H](OC)/C=C/C=C(\C)C2 (single isomer, unassigned)
2. COCC(C)(CCC(=O)N(C)[C@@H](C)C(=O)O[C@H]1CC(=O)N(C)c2cc(cc(OC)c2Cl)C/C(C)=C/C=C/[C@@H](OC)[C@@]2(O)C[C@H](OC(=O)N2)[C@@H](C)[C@@H]2O[C@@]12C)SSC (stereo partly shown)
3. COc1cc2cc(c1Cl)N(C)C(=O)C[C@H](OC(=O)[C@H](C)OCCCSC1CC(=O)N(C[C@H]3CC[C@H](C(=O)ON4C(=O)CCC4=O)CC3)C1=O)[C@]1(C)O[C@H]1[C@H](C)C1C[C@@](O)(NC(=O)O1)[C@H](OC)/C=C/C=C(\C)C2 (stereo partly shown) [CE-051]

Response:
1. 8.22
2. 8.52
3. 6.92

----------
- System: Her2-positive human BT474 breast tumor cells
- PROTOCOL_SUMMARY: Cytotoxicity assay (growth inhibition, CellTiter-Glo) on BT474
- EXPERIMENTAL_SETUP: read-out: Cytotoxicity assay IC50 BT474; BT474 cells, 120 hours, CellTiter-Glo
Exercise: state measured pIC50 for each of the compounds provided.
Numbers only, as −log10 of the molar value.

{"COMPOUND": "COCC(C)(CCC(=O)N(C)[C@@H](C)C(=O)O[C@H]1CC(=O)N(C)c2cc(cc(OC)c2Cl)C/C(C)=C/C=C/[C@@H](OC)[C@@]2(O)C[C@H](OC(=O)N2)[C@@H](C)[C@@H]2O[C@@]12C)SSC (some centres unmarked) [CE-015]", "METRIC": "pIC50", "OBS_VALUE": 8.20}
{"COMPOUND": "COc1cc2cc(c1Cl)N(C)C(=O)C[C@H](OC(=O)C(COCCCSSC)OC)[C@]1(C)O[C@H]1[C@H](C)C1C[C@@](O)(NC(=O)O1)[C@H](OC)/C=C/C=C(\\C)C2 (single isomer, unassigned)", "METRIC": "pIC50", "OBS_VALUE": 8.10}
{"COMPOUND": "COCC(C)(CCC(=O)N(C)[C@@H](C)C(=O)O[C@H]1CC(=O)N(C)c2cc(cc(OC)c2Cl)C/C(C)=C/C=C/[C@@H](OC)[C@@]2(O)C[C@H](OC(=O)N2)[C@@H](C)[C@@H]2O[C@@]12C)SSC (some centres unmarked) [CE-013]", "METRIC": "pIC50", "OBS_VALUE": 7.68}
{"COMPOUND": "COc1cc2cc(c1Cl)N(C)C(=O)C[C@H](OC(=O)[C@H](C)OCCCSC1CC(=O)N(C[C@H]3CC[C@H](C(=O)ON4C(=O)CCC4=O)CC3)C1=O)[C@]1(C)O[C@H]1[C@H](C)C1C[C@@](O)(NC(=O)O1)[C@H](OC)/C=C/C=C(\\C)C2 (some centres unmarked) [CE-051]", "METRIC": "pIC50", "OBS_VALUE": 6.95}

Attention now turns to another entry.
Query: Recorded pIC50 of COc1cc2cc(c1Cl)N(C)C(=O)C[C@H](OC(=O)[C@H](C)OCCCSC1CC(=O)N(C[C@H]3CC[C@H](C(=O)ON4C(=O)CCC4=O)CC3)C1=O)[C@]1(C)O[C@H]1[C@H](C)C1C[C@@](O)(NC(=O)O1)[C@H](OC)/C=C/C=C(\C)C2 (some centres unmarked) [CE-035] , please.
Response: 7.57
